- Test system: Caupolican (Caup) homeodomain DNA-binding domain
- Sequence: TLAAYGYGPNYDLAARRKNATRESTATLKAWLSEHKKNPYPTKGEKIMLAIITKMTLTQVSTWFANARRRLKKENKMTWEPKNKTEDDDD
- assay.text: PBM E-score (8-mer, recovered from the published 9-mer minima) (E-score (dimensionless, -0.5 to 0.5)); Drosophila protein; higher = stronger relative binding preference, active = 0.31 or more
The entries come from a sample that favours hits as a whole. How many sequences the whole screen found active is unknown.
Classes used: Y for active, N for inactive

- monomer.sequence: "CCTGTTAA"
  class.name: "N"
- monomer.sequence: "AAGTACAC"
  class.name: "N"
- monomer.sequence: "ACCATGTA"
  class.name: "Y"
- monomer.sequence: "TAGTACAA"
  class.name: "Y"
- monomer.sequence: "ATGTAGGC"
  class.name: "N"
- monomer.sequence: "CTGGTACC"
  class.name: "N"
- monomer.sequence: "AGCACATG"
  class.name: "N"
- monomer.sequence: "GCGTAGTA"
  class.name: "N"
- monomer.sequence: "AAATGTCT"
  class.name: "N"
- monomer.sequence: "CTCCAGTC"
  class.name: "N"
- monomer.sequence: "CACCTTGC"
  class.name: "N"
- monomer.sequence: "GTTACATA"
  class.name: "Y"
- monomer.sequence: "CAGTAGTA"
  class.name: "N"
- monomer.sequence: "CAGGTACA"
  class.name: "N"
- monomer.sequence: "ACGACATC"
  class.name: "N"
- monomer.sequence: "GCGTACAA"
  class.name: "N"
- monomer.sequence: "TCGTACAA"
  class.name: "Y"
- monomer.sequence: "CAGTACAA"
  class.name: "N"
- monomer.sequence: "CGTATGTA"
  class.name: "N"
- monomer.sequence: "ATTGTTAC"
  class.name: "N"
- monomer.sequence: "AGTACATC"
  class.name: "Y"
- monomer.sequence: "AGTACATG"
  class.name: "Y"
- monomer.sequence: "GCGACAAC"
  class.name: "N"
- monomer.sequence: "ATTGTTGA"
  class.name: "N"
- monomer.sequence: "AAAATACT"
  class.name: "N"
- monomer.sequence: "GATATGTA"
  class.name: "Y"
- monomer.sequence: "AATATGTC"
  class.name: "N"
- monomer.sequence: "ACCATGCA"
  class.name: "N"
- monomer.sequence: "GACGCACA"
  class.name: "N"
- monomer.sequence: "ATTGTTTA"
  class.name: "N"
- monomer.sequence: "ACACGAGG"
  class.name: "N"
- monomer.sequence: "GCCGGGTA"
  class.name: "N"
- monomer.sequence: "ACCATGTG"
  class.name: "N"
- monomer.sequence: "CCTGTTAC"
  class.name: "N"
- monomer.sequence: "AAGTACAT"
  class.name: "Y"
- monomer.sequence: "GGAGGGAA"
  class.name: "N"
- monomer.sequence: "CAAGCTAG"
  class.name: "N"
- monomer.sequence: "AAGTACAA"
  class.name: "Y"
- monomer.sequence: "AAAATTAA"
  class.name: "N"
- monomer.sequence: "ATTACATC"
  class.name: "Y"
- monomer.sequence: "ATTTTCCC"
  class.name: "N"
- monomer.sequence: "CTCACATA"
  class.name: "N"
- monomer.sequence: "AAGTAGTA"
  class.name: "N"
- monomer.sequence: "CAAGCTGG"
  class.name: "N"
- monomer.sequence: "AGCCATTC"
  class.name: "N"
- monomer.sequence: "AGTACGTG"
  class.name: "N"
- monomer.sequence: "ACAATCCG"
  class.name: "N"
- monomer.sequence: "ACACGATG"
  class.name: "Y"
- monomer.sequence: "GCATTGGC"
  class.name: "N"
- monomer.sequence: "CTATTGAA"
  class.name: "N"
- monomer.sequence: "AAAGATTT"
  class.name: "N"
- monomer.sequence: "TAGGTACA"
  class.name: "N"
- monomer.sequence: "ACGGCAGT"
  class.name: "N"
- monomer.sequence: "GAGGTACA"
  class.name: "Y"
- monomer.sequence: "ACATGTCC"
  class.name: "Y"
- monomer.sequence: "GTAGTTCA"
  class.name: "N"
- monomer.sequence: "ATGGTACC"
  class.name: "N"
- monomer.sequence: "GATGGCGA"
  class.name: "N"
- monomer.sequence: "AGGGTATC"
  class.name: "N"
- monomer.sequence: "ACGACATA"
  class.name: "N"
- monomer.sequence: "AGAGGTAC"
  class.name: "N"
- monomer.sequence: "ACATGTCT"
  class.name: "Y"
- monomer.sequence: "CTGTAGTA"
  class.name: "Y"
- monomer.sequence: "CCTAAAAC"
  class.name: "N"
- monomer.sequence: "ATCACATG"
  class.name: "N"
- monomer.sequence: "CCATGTCG"
  class.name: "Y"
- monomer.sequence: "GTGTAGTA"
  class.name: "Y"
- monomer.sequence: "CCTCTACG"
  class.name: "N"
- monomer.sequence: "AAGTACGA"
  class.name: "N"
- monomer.sequence: "AAGACATG"
  class.name: "Y"
- monomer.sequence: "ATGGTACG"
  class.name: "N"
- monomer.sequence: "CATATGTC"
  class.name: "N"
- monomer.sequence: "AGACTGTG"
  class.name: "N"
- monomer.sequence: "AGCACATC"
  class.name: "N"
- monomer.sequence: "ACGCTGAG"
  class.name: "N"
- monomer.sequence: "ATTACAGG"
  class.name: "N"
- monomer.sequence: "GAACACCA"
  class.name: "N"
- monomer.sequence: "ACGACAAC"
  class.name: "Y"
- monomer.sequence: "AGGACAAG"
  class.name: "N"
- monomer.sequence: "ATGGTACA"
  class.name: "Y"
- monomer.sequence: "GCGCTGCC"
  class.name: "N"
- monomer.sequence: "CTTGTTGA"
  class.name: "N"
- monomer.sequence: "CAATGTCG"
  class.name: "N"
- monomer.sequence: "CCGTACAA"
  class.name: "N"
- monomer.sequence: "CGAGGTCA"
  class.name: "N"
- monomer.sequence: "CAATAGCC"
  class.name: "N"
- monomer.sequence: "AGGACATC"
  class.name: "N"
- monomer.sequence: "GTTACAGA"
  class.name: "N"
- monomer.sequence: "ATTACATA"
  class.name: "Y"
- monomer.sequence: "CGATGCTC"
  class.name: "N"
- monomer.sequence: "ACGACATG"
  class.name: "Y"
